measured target: ACE (EC 3.4.15.1) purified from the rabbit lungs (Oryctolagus cuniculus)
Construct: ACE (EC 3.4.15.1) purified from the rabbit lungs; purchased Sigma-Aldrich Japan K.K; host or cells: rabbit lung (tissue-purified)
Sequence (P12822 34-1310): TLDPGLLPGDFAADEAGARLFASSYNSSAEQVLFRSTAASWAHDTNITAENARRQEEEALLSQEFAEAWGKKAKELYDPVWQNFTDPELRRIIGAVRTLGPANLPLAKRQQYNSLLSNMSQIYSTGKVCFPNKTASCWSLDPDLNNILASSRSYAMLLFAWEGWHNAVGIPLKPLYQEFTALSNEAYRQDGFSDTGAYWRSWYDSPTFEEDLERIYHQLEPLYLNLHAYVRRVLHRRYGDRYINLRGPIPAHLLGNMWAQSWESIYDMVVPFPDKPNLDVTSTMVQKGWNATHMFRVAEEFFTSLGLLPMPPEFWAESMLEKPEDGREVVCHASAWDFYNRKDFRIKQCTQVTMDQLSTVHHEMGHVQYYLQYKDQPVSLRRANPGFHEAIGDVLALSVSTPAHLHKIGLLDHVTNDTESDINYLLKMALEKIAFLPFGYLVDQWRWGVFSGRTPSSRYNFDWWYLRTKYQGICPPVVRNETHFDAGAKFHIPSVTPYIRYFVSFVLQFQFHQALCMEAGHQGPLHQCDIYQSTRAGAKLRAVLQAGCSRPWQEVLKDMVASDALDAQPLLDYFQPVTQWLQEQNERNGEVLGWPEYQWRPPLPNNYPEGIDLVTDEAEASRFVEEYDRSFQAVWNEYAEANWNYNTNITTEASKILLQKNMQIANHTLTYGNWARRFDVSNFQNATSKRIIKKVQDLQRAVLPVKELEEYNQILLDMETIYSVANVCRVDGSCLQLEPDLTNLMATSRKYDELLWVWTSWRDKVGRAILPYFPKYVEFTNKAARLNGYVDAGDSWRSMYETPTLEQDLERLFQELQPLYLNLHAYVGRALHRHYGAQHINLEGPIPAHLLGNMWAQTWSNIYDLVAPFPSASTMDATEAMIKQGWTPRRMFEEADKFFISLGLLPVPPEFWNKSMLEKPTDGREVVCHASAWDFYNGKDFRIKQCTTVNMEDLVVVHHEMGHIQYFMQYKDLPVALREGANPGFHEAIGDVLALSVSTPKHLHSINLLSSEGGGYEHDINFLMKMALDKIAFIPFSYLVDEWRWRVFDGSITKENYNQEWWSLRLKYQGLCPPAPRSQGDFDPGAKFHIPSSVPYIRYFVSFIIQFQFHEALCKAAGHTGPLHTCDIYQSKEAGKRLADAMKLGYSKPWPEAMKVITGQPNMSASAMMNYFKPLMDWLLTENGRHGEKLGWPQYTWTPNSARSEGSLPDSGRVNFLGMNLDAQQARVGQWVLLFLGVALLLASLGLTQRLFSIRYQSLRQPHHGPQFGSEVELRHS
method: biochemical
run conditions: Hip-His-Leu substrate; mean ± S.E., n = 3; read-out: In vitro ACE-inhibitory activity IC50
Where a SMILES comes first, the peptide text is derived from it.
attribute measured: IC50 (mM)

CC(C)[C@H](N)C(=O)N[C@@H](C)C(=O)N[C@@H](CCC(=O)O)C(=O)O [VAE] (H-Val-Ala-Glu-OH); 55.9

[A] NC(=O)CC[C@H](NC(=O)[C@@H](N)Cc1ccccc1)C(=O)O [FQ]
[B] CC(C)[C@H](N)C(=O)N[C@H](C(=O)NCC(=O)O)C(C)C [VVG] (H-Val-Val-Gly-OH)
Challenge: Kindly compare A with B and tell me which has the lower IC50 figure. In your reply, give the label of the chosen option.
Response given: A
